// provenance: ChEMBL document CHEMBL4483862

# IC90 annotations
tested on: Plasmodium berghei; experiment: Luciferase/luciferin-expressing antifolate-resistant parasites were used to infect a culture of HepG2 cells that were pre-incubated with compounds. Infected hepatocytes emit light due to the luciferase reaction. Assay results are presented as the percent inhibition of light emission compared to control. […]; type: functional; conditions: sporozoite, read-out: LUCIFERASE INFECTION ASSAY - IC90

Sample answers from the record:
O=C(CNc1cccc(S(=O)(=O)N2CCOCC2)c1)N(C1CCCCC1)C1CCS(=O)(=O)C1 (stereo unspecified)	> 10 µM
CC(C)(C)c1ccc(OCC(=O)N2CCC(C(N)=O)CC2)cc1	> 10.4 µM
Cc1csc2sc(C(=O)N3CCOCC3)c(C)c12	> 11.7 µM
O=[N+]([O-])c1ccsc1Oc1ccc(Cl)cc1Cl	> 11.4 µM
O=C(Nc1ccc(Cl)c(C(F)(F)F)c1)C(c1ccccc1)N1CC=C(c2ccccc2)CC1 (stereo unspecified)	> 10 µM

// `FC(F)(F)Oc1ccc(Nc2cc(-c3cccc(Cl)c3)ncn2)cc1` : IC90 value = > 9.02 µM

* * *

system: Plasmodium berghei; assay: Luciferase/luciferin-expressing antifolate-resistant parasites were used to infect a culture of HepG2 cells that were pre-incubated with compounds. Infected hepatocytes emit light due to the luciferase reaction. Assay results are presented as the percent inhibition of light emission compared to control. […]; type: functional; details: sporozoite, read-out: LUCIFERASE INFECTION ASSAY - IC90
Parameter: IC90

Cc1nc2ccccc2c(C)c1CC(=O)NCc1coc(-c2cccs2)n1	> 10 µM
Cc1ccc2sc(N(Cc3ccccc3)C(=O)CN3CCC(C(N)=O)CC3)nc2c1C	4.19 µM
O=C(CNc1cccc(S(=O)(=O)N2CCCCC2)c1)NC(=O)NC1CCCC1	> 10 µM

Consider now this further molecule.
get_value(item= `CS(=O)(=O)Nc1cccc(-c2cn3c(-c4ccc5c(c4)OCO5)cnc3cn2)c1` , readout=IC90) returns > 8.08 µM

* * *

Reported IC90 values are given for each entry in this list.
system: Plasmodium berghei; experiment: Luciferase/luciferin-expressing antifolate-resistant parasites were used to infect a culture of HepG2 cells that were pre-incubated with compounds. Infected hepatocytes emit light due to the luciferase reaction. Assay results are presented as the percent inhibition of light emission compared to control. […]; type: functional; details: sporozoite, read-out: LUCIFERASE INFECTION ASSAY - IC90

See these solved cases before continuing.
O=C(c1nn(-c2ccccc2)c(=O)c2ccccc12)N(CCCN1CCOCC1)Cc1cccs1	> 10 µM
CCCNc1nc(-c2ccc(OC)cc2)c(-c2ccc(OC)cc2)s1	> 10 µM
CCCCNC(=O)c1c(NC(=O)C(CC)c2ccccc2)nc2ccc(C)cn12 (stereo not given)	> 8.41 µM
CCCCCCn1c(SCc2cc(=O)oc3cc(C)ccc23)nnc1-c1c[nH]c2ccccc12	> 10 µM

Query molecule follows.
The reported IC90 of the molecule COc1ccc(NC(=O)C(C)N2CCN(CCc3ccccc3)CC2)cc1Cl (stereo not given) was > 10 µM

* * *

tested on: Plasmodium berghei; test: Luciferase/luciferin-expressing antifolate-resistant parasites were used to infect a culture of HepG2 cells that were pre-incubated with compounds. Infected hepatocytes emit light due to the luciferase reaction. Assay results are presented as the percent inhibition of light emission compared to control. […]; assay type: functional; conditions: sporozoite, read-out: LUCIFERASE INFECTION ASSAY - IC90
IC90 values for the compounds below.

CN(C)c1cccc(-c2cnc3sc(NCCCO)nn23)c1	> 10.4 µM

Observed IC90, Plasmodium berghei, `CCOc1ccc(-c2nnc(SCc3csc(Nc4ccc(C)cc4)n3)n2-c2ccccc2F)cc1` : > 10 µM

Form field IC90 for item `Oc1c(Br)cc(/C=C/c2nc3cc(Cl)ccc3o2)cc1Br` on Plasmodium berghei: > 10 µM

Tested on Plasmodium berghei: FC(F)Oc1ccc(-c2cs/c(=N\c3cccnc3)n2CC2CCCO2)cc1 (stereo not given) . Observed IC90: > 10 µM

Plasmodium berghei assay, compound `O=C(Cc1ccc(Cl)cc1)N1CCc2nc(NCc3cccc(Oc4ccccc4)c3)ncc2C1` , recorded IC90 = > 6.8 µM

Query Cc1nn(-c2ccccc2)c2c1C(c1cccnc1)C(c1nc3ccccc3s1)C(c1ccccc1)=N2 (stereo not given) on Plasmodium berghei; IC90 returned: > 10 µM

IC90 on Plasmodium berghei for `CC(C)(C)c1ccc(-c2nnc(SCC(=O)Nc3sccc3C(N)=O)n2C2CCCC2)cc1` is > 10 µM

Query `Cc1cccc(/C=C2\SC(=O)N(CCC(=O)Nc3ccc(-c4nnc5n4CCCCC5)cc3)C2=O)c1` on Plasmodium berghei; IC90 returned: > 10 µM

Value (IC90, Plasmodium berghei) for record `NC(=O)c1cc(-c2csc(NC(=O)Cc3ccc(Cl)c(Cl)c3)n2)c[nH]1` = > 10 µM

# value of IC90, Plasmodium berghei, item O=C(CSc1nnc(-c2ccncc2)[nH]1)N1N=C(c2cccs2)CC1c1cccs1 (stereo not given) = > 10 µM

Readout IC90 for `O=C(Nn1cnc2ccccc21)c1ccccc1Nc1ccc(SC(F)F)cc1` , test system Plasmodium berghei, was > 10 µM

The recorded IC90 with Plasmodium berghei for `O=C(NNC(=O)c1sccc1OCc1ncc(C(F)(F)F)cc1Cl)c1ccccc1` was > 7.24 µM

Tested system Plasmodium berghei; IC90 recorded for `CCc1nc(Sc2nnnn2-c2ccccc2)c2c3c(sc2n1)CCCC3` was > 10 µM

Plasmodium berghei assay, compound `C/C(=N\NC(=S)Nc1cccc(C(F)(F)F)c1)c1cc(Cl)cc(Cl)c1O` , recorded IC90 = > 7.82 µM

// compound `COc1ccc(CCC(=O)NCc2cc(=O)n(C)c(=O)n2C)cc1` , assay Plasmodium berghei, IC90 value: > 9.96 µM

# COc1ccc(NC(C(=O)Nc2cccc(C(F)(F)F)c2)c2ccccc2)cc1OC (stereo not given) with Plasmodium berghei: IC90 is > 10 µM

Noted IC90 for `Cc1ccc(-n2c(=O)c3ccccc3n3c(SCc4nnnn4C4CC4)nnc23)c(C)c1` , tested on Plasmodium berghei: > 10 µM

Form field IC90 for item `CN(C)CCNC(=O)c1ccc(-c2cc(-c3cc(F)c(F)c(F)c3)cnc2N)cc1` on Plasmodium berghei: > 7.96 µM

Form field IC90 for item `CN(CC(=O)Nc1ccc(Cl)c(Cl)c1)C(=O)C12CC3CC(CC(C3)C1)C2` on Plasmodium berghei: > 10 µM

# IC90 measured on Plasmodium berghei for item `Cc1nc2sccn2c1C(=O)NCc1ccccc1Oc1ccccc1` = > 9.08 µM

Note to self: IC90 of `COc1cc(OC)cc(-c2cnc3cnc(-c4ccc(CO)cc4)cn23)c1` with Plasmodium berghei was > 9.13 µM

Item: `CCNC(=O)c1cccc(Nc2nc(C(F)(F)F)nc3ccccc23)c1` | System: Plasmodium berghei | IC90: > 10 µM

Reported Plasmodium berghei IC90 for item `COc1cccc(-c2cc(=O)n(-c3ccc(F)cc3)[nH]2)c1` was > 11.6 µM

The compound `CSc1c(C#N)c(-c2ccc(Cl)cc2)nn1C(=O)C(C)C` , when measured on Plasmodium berghei, yielded IC90 of > 10.3 µM

Note to self: IC90 of `Cc1ccccc1Sc1ccc(NC(=O)c2ccc(F)cc2)cc1C#N` with Plasmodium berghei was > 9.11 µM
